System: HCT-116 human colon carcinoma cells
Experiment: Cytotoxicity (in vitro) MTS assay in HCT-116 human colon carcinoma cells
Assay type: cell-based
Conditions: Homo sapiens, HCT-116, 72 h, read-out: IC50 HCT 116, HCT-116 cells, MTS assay, 72 hours at 37° C.; drug concentration required to inhibit cell proliferation to 50% of untreated control
measurement_label: IC50 (nM)
All answers are understood in nM, so give the number only.

q: What IC50 value was documented for this compound, CS[C@@H]1C[C@H]2OC[C@@]2(OC(C)=O)[C@H]2[C@H](OC(=O)c3ccccc3)[C@]3(O)C[C@H](OC(=O)[C@H](O)[C@@H](NC(=O)c4ccccc4)c4ccccc4)C(C)=C([C@@H](OC(C)=O)C(=O)[C@@]21C)C3(C)C [Compound 5a, 7-deoxy-7α-thiomethylpaclitaxel] ?
a: 13.1

q: Follow-up item: CC(=O)O[C@H]1C(=O)[C@]2(C)[C@@H](SC[S+](C)[O-])C[C@H]3OC[C@@]3(OC(C)=O)[C@H]2[C@H](OC(=O)c2ccccc2)[C@]2(O)C[C@H](OC(=O)[C@H](O)[C@@H](NC(=O)c3ccccc3)c3ccccc3)C(C)=C1C2(C)C (stereo partly shown) [31a&b]
a: 6.48

q: Follow-up item: CC(=O)O[C@H]1C(=O)[C@]2(C)[C@@H](SC#N)C[C@H]3OC[C@@]3(OC(C)=O)[C@H]2[C@H](OC(=O)c2ccccc2)[C@]2(O)C[C@H](OC(=O)[C@H](O)[C@@H](NC(=O)c3ccccc3)c3ccccc3)C(C)=C1C2(C)C [Compound 28a, 7-deoxy-7β-thiocyanatopaclitaxel]
a: 1.8
